- Tested on: interferon regulatory factor (IRF) pathway in THP1-Dual™ cells
- PROTOCOL: THP1-Dual reporter gene assay (Agonist_THP1_EC50)
- Assay type: cell-based
- CONDITION SUMMARY: Homo sapiens, 20-24 hrs compound treatment, Lucia luciferase (IRF) readout
I'd be grateful if you could share measured pEC50 for these entries.
# pEC50 = -log10(concentration in molar units)

The reported pEC50 of the molecule CCn1nc(C)c(O)c1-c1nc(-c2nc(C(N)=O)n3cc(C)ncc23)co1 was 6.08

Entry CCCCn1nc(C)c(O)c1-c1nc(-c2nc(C(N)=O)n3cc(C)ncc23)co1 ; pEC50 = 7.80

Looking up CCCCn1nc(C)c(O)c1-c1nc(-n2nc(C(N)=O)c3cc(C)ncc32)co1 , I found its pEC50 recorded as 8.00

Measured pEC50 of Cc1cc2c(C(N)=O)nn(-c3nc(-c4c(O)c(C)nn4CCc4ccccc4F)n[nH]3)c2cn1 : 7.89

Form: molecule = Cc1cc2c(C(N)=O)nn(-c3nc(-c4c(O)c(C)nn4CC4CC4)n[nH]3)c2cn1 ; pEC50 = 7.44
